target: BRAF-GTP-KRAS-G12C complex (Homo sapiens, UniProt P01116+P62937, G12C); construct: 50 nM of His6-KRas G12C-GTP (1-169); 500 nM of tagless CypA (1-165); assay: KRAS-BRAF complex disruption through competition with CYPA-compound by TR-FRET; details: biochemical BRAF-KRAS G12C-GTP disruption assay EC50, with CYPA
Assay readout: EC50

C=CC(=O)N1CCN([C@H](C(=O)N[C@H]2Cc3cc(O)cc(c3)-c3ccc4c(C)cn(c4c3)CC(C)(C)COC(=O)[C@@H]3CCCN(N3)C2=O)C(C)C)C1=O : ≤ 500 nM
CC(C)[C@@H](C(=O)N[C@H]1Cc2cc(O)cc(c2)-c2ccc3c(C(C)(C)C#N)cn(c3c2)CC(CC#N)COC(=O)[C@@H]2CCCN(N2)C1=O)N(C)C(=O)C1CN(C(=O)CCl)C1 (stereo partly shown) : ≤ 500 nM

Here's the next entry for you.
Incoming: May I ask what EC50 has been recorded for CC#CC(=O)N1CC2(CCN([C@H](C(=O)N[C@H]3Cc4cc(O)cc(c4)-c4ccc5c(C(C)(C)C#N)cn(c5c4)CC(C)(C)COC(=O)[C@@H]4CCCN(N4)C3=O)C(C)C)C2=O)C1 ?
Outgoing: 500 to 5000 nM
